Readings of self-splicing fitness (ln) for the listed sequences
- ASSAY PROTOCOL: self-splicing fitness, log relative to wild type (ln ratio); higher = more splicing; Tetrahymena group I intron in knt gene, E. coli kanamycin selection, DiMSum; sequences stand for … in CUCUCU…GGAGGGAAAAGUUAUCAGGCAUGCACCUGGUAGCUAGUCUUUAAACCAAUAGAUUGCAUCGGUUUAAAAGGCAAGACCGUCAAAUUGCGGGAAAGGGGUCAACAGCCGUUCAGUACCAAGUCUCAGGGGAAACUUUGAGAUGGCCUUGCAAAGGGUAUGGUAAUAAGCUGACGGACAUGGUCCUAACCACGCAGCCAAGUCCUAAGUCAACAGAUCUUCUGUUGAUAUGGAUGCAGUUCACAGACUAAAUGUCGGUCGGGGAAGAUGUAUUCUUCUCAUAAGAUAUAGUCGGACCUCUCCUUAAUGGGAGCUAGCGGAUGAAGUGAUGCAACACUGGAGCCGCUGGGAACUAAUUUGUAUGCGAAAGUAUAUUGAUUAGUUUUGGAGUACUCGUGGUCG;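 also: selection with 25 µg/mL kanamycin versus none on LB agar overnight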
- MEASUREMENT PARAMETERS: 30 °C

[in] Entry `CAGCAGCAAUAUUACGGUUU` : reported self-splicing fitness (ln) = ?
[out] -0.8
